Molecular target: Factor VIIa:rTF complex (Homo sapiens, UniProt P08709)
Construct: 2.5 ml 400 nMhuman Factor VIIa
Sequence (P08709 213-466 limits assumed): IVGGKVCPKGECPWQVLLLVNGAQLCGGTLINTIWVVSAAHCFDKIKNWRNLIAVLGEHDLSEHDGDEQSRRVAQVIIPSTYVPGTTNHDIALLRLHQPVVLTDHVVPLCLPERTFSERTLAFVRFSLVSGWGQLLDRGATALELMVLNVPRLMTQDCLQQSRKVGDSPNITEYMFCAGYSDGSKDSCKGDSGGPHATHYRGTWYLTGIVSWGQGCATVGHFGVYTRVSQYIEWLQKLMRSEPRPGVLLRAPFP
Sequence (P08709 61-212 partner limits assumed): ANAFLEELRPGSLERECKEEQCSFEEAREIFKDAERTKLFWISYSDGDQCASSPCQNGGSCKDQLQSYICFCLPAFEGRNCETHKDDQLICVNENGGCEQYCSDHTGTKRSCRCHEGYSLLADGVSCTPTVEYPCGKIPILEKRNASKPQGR
Sequence (P13726 33-295 partner): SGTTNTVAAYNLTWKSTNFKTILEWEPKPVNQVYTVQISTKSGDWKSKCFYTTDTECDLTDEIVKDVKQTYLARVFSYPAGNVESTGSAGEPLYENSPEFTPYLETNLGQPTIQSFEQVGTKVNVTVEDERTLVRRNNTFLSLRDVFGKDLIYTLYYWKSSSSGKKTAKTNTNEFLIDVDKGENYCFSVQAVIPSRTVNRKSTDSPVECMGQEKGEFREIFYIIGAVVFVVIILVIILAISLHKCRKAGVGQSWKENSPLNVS
Assay: Factor VIIa assay (S-2288 substrate)
Type: biochemical
Settings: [IC50 for Trypsin/IC50 for other enzyme]×100; lower = more trypsin selective
Non-standard residues stand in square brackets, D forms with d. Residues, ends and D or L forms follow the SMILES beside them. *: point of attachment. Boc = CC(C)(C)OC(=O)*
readout: Calculated % Selectivity VIIa (%)
Give bare numbers, in %.

{"compound": "CC(C)(C)OC(=O)N[C@H](CC(=O)O)C(=O)N1CCC[C@H]1C(=O)N[C@H](C=O)CCCNC(=N)N [Compound 12] (Boc-[dD]-Pro-Arg-aldehyde)", "readout": "Calculated % Selectivity VIIa", "value_measured": 0}

Items follow; give Calculated % Selectivity VIIa for each.
1. CC(C)COC(=O)NC(CC(=O)O)C(=O)N1CCCC1C(=O)NC(C=O)CCCN=C(N)N (centres unmarked)
2. CC(C)(C)OC(=O)N[C@@H](CC(=O)O)C(=O)N1CCC[C@H]1C(=O)N[C@H](C=O)CCCNC(=N)N [Compound 9] (Boc-Asp-Pro-Arg-aldehyde)

1: 0; 2: 0

###

Give IC50 for every item shown.
Molecular target: UniProtKB P00742
Sequence (P00742 235-488 limits assumed): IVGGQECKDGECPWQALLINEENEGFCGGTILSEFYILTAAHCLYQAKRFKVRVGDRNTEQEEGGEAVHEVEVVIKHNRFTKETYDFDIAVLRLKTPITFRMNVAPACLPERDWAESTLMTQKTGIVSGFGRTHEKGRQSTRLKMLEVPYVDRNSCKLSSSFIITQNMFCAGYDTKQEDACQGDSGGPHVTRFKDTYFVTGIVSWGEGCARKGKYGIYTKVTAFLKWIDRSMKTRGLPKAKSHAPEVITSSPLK
Sequence (P00742 41-179 partner limits assumed): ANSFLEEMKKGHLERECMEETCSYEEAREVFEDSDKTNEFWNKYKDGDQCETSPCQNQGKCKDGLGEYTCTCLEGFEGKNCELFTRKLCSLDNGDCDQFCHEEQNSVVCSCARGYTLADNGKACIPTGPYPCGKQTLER
Numbers only, in µM.

{"molecule": "CCOC(=O)c1ccc(OC(=O)CCCCCN=C(N)N)cc1.CS(=O)(=O)O [FOY, gabexate mesilate, reference compound]", "value_units": "µM", "IC50": 8}
{"molecule": "N=C(N)c1ccc2cc(OC(=O)c3ccc(N=C(N)N)cc3)ccc2c1 [Futhan, reference compound]", "value_units": "µM", "IC50": 6}

Turning now to a further molecule:
Given the molecule CC(=O)N[C@@H](CC(C)C)C(=O)N[C@@H](CC(C)C)C(=O)N[C@H](C=O)CCCNC(=N)N [Leupeptin, reference compound] , what is its reported IC50?
25

###

Biological target: Activated human Protein C (Homo sapiens, UniProt P04070)
Sequence (P04070 212-461 limits assumed): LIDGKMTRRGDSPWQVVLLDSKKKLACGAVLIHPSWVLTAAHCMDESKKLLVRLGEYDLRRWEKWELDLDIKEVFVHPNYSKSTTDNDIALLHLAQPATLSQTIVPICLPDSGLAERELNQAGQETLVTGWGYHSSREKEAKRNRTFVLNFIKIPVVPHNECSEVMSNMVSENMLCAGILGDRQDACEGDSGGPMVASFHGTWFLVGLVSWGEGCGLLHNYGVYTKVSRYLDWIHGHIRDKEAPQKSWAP
Sequence (P04070 43-197 partner limits assumed): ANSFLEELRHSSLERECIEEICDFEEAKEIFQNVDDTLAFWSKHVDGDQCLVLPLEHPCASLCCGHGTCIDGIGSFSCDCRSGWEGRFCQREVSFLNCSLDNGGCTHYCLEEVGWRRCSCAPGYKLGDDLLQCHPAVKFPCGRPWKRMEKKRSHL
Assay: Protein C assay (Pefachrome PC substrate)
Conditions: 30 min preincubation, room temperature; tested 0.025-25 μM; Inact. = no inhibition at highest concentration
Method: The specificity of the peptide aldehydes (8 through 12) was determined in vitro by measurement of their IC50 against other enzymes involved in hemostasis. A specific concentration of enzyme and its substrate were challenged with varying concentrations of inhibitor. […] Enzyme activity was determined using as substrate, Pefachrome PC [δ-carbobenzoloxy-D-lysyl-L-prolyl-L-arginine-p-nitroanilide], purchased from Centerchem, Inc. The substrate was made up in deionized water prior to use. […]
pIC50: −log10 of the molar value. Non-standard residues stand in square brackets, D forms with d. Residues, ends and D or L forms follow the SMILES beside them. *: point of attachment. Boc = CC(C)(C)OC(=O)*
readout: pIC50

Solved entries:
{"compound": "N=C(N)NCCC[C@@H](C=O)NC(=O)[C@@H]1CCCN1C(=O)[C@H](CC(=O)O)NC(=O)OC12CC3CC(CC(C3)C1)C2", "study_system": "Activated human Protein C (Homo sapiens, UniProt P04070)", "pIC50": "< 4.60"}
{"compound": "CC(C)(C)OC(=O)N[C@H](CC(=O)O)C(=O)N1CCC[C@H]1C(=O)N[C@H](C=O)CCCNC(=N)N [Compound 12] (Boc-[dD]-Pro-Arg-aldehyde)", "study_system": "Activated human Protein C (Homo sapiens, UniProt P04070)", "pIC50": "< 4.60"}

Turning now to a further compound:
Given the compound N=C(N)c1ccc2cc(OC(=O)c3ccc(N=C(N)N)cc3)ccc2c1 [Futhan, reference compound] , what is its reported pIC50?
7.08

###

Target: human kallekrein (Homo sapiens)
Construct: 50 μL of 4 to 9 nM human kallekrein
Sequence (P03952 391-638 limits assumed): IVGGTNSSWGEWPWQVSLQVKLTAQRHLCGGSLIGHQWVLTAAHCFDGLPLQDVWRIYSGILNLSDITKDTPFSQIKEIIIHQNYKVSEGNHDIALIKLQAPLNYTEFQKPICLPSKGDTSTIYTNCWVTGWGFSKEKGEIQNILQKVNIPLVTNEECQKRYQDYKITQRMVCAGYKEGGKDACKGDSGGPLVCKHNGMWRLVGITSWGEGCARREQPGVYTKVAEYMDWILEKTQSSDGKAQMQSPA
Sequence (P03952 20-390 partner limits assumed): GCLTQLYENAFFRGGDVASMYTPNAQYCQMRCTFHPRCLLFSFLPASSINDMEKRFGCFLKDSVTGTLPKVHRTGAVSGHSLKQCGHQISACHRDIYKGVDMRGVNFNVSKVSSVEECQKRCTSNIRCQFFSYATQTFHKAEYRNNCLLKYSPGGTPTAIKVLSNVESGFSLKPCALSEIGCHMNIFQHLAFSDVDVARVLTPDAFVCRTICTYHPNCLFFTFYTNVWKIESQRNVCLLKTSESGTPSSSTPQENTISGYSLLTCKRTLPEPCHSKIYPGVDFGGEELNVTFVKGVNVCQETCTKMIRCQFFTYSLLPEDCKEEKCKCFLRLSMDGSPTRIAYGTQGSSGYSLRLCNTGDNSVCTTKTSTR
Experiment: Kallikrein assay (S-2302 substrate)
Assay type: biochemical
Conditions: 30 min preincubation, room temperature; tested 0.025-25 μM; Inact. = no inhibition at highest concentration
Residues, ends and D or L forms follow the SMILES beside them. *: point of attachment. Boc = CC(C)(C)OC(=O)*
readout: IC50

Solved entries:
{"compound": "CC(C)(C)OC(=O)N[C@@H](CCC(=O)O)C(=O)N1CCC[C@H]1C(=O)N[C@H](C=O)CCCNC(=N)N [Compound 8] (Boc-Glu-Pro-Arg-aldehyde)", "readout": "IC50", "value_measured": "6000 nM"}
{"compound": "N=C(N)NCCC[C@@H](C=O)NC(=O)[C@@H]1CCCN1C(=O)[C@H](CC(=O)O)NC(=O)OC12CC3CC(CC(C3)C1)C2", "readout": "IC50", "value_measured": "2000 nM"}

Turning now to a further compound:
Given the compound N=C(N)c1ccc2cc(OC(=O)c3ccc(N=C(N)N)cc3)ccc2c1 [Futhan, reference compound] , what is its reported IC50?
< 25 nM

###

Give Ki for every item shown.
Biological target: bovine and human pancreatic trypsin
Experiment: Potency: determination of inhibitor constant Ki against trypsin (S-2222 substrate, Dixon plot)
Conditions: 37° C., TBS pH 7.4, 15 min preincubation, read-out: Ki For Peptide Aldehydes Against Trypsin
Non-standard residues stand in square brackets, D forms with d. Residues, ends and D or L forms follow the SMILES beside them. *: point of attachment. Boc = CC(C)(C)OC(=O)*
Answer with the number, then the unit.

Solved entries:
{"compound": "CC(C)(C)OC(=O)N[C@H](CC(=O)O)C(=O)N1CCC[C@H]1C(=O)N[C@H](C=O)CCCNC(=N)N [Compound 12] (Boc-[dD]-Pro-Arg-aldehyde)", "readout": "Ki", "value_measured": "45000 pM"}
{"compound": "CC(C)(C)OC(=O)N[C@@H](CC(=O)O)C(=O)N1CCC[C@H]1C(=O)N[C@H](C=O)CCCNC(=N)N [Compound 9] (Boc-Asp-Pro-Arg-aldehyde)", "readout": "Ki", "value_measured": "450 pM"}
{"compound": "N=C(N)NCCC[C@@H](C=O)NC(=O)[C@@H]1CCCN1C(=O)[C@H](CC(=O)O)NC(=O)OC12CC3CC(CC(C3)C1)C2", "readout": "Ki", "value_measured": "200 pM"}

Turning now to a further compound:
Given the compound CC(C)(C)OC(=O)N[C@@H](CCC(=O)O)C(=O)N1CCC[C@H]1C(=O)N[C@H](C=O)CCCNC(=N)N [Compound 8] (Boc-Glu-Pro-Arg-aldehyde) , what is its reported Ki?
1400 pM

###

Molecular target: Factor VIIa:rTF complex (Homo sapiens)
Construct: 2.5 ml 400 nMhuman Factor VIIa
Assay: Factor VIIa assay (S-2288 substrate)
Conditions: 30 min preincubation, room temperature; tested 0.025-25 μM; Inact. = no inhibition at highest concentration
pIC50: −log10 of the molar value. Residues, ends and D or L forms follow the SMILES beside them. *: point of attachment. Boc = CC(C)(C)OC(=O)*
Give pIC50 for every item shown.

Items follow; give pIC50 for each.
1. CCOC(=O)c1ccc(OC(=O)CCCCCN=C(N)N)cc1.CS(=O)(=O)O [FOY, gabexate mesilate, reference compound]
2. CC(C)(C)OC(=O)N[C@@H](CCC(=O)O)C(=O)N1CCC[C@H]1C(=O)N[C@H](C=O)CCCNC(=N)N [Compound 8] (Boc-Glu-Pro-Arg-aldehyde)
3. N=C(N)c1ccc2cc(OC(=O)c3ccc(N=C(N)N)cc3)ccc2c1 [Futhan, reference compound]
4. N=C(N)NCCC[C@@H](C=O)NC(=O)[C@@H]1CCCN1C(=O)[C@H](CC(=O)O)NC(=O)OC12CC3CC(CC(C3)C1)C2
5. CC(=O)N[C@@H](CC(C)C)C(=O)N[C@@H](CC(C)C)C(=O)N[C@H](C=O)CCCNC(=N)N [Leupeptin, reference compound]

< 4.60
< 4.60
5.92
< 4.60
< 4.60

###

Biological target: human Factor XIa (Homo sapiens, UniProt P03951)
Construct: 50 μL of 5 nM human Factor XIa
Sequence (P03951 388-625 limits assumed): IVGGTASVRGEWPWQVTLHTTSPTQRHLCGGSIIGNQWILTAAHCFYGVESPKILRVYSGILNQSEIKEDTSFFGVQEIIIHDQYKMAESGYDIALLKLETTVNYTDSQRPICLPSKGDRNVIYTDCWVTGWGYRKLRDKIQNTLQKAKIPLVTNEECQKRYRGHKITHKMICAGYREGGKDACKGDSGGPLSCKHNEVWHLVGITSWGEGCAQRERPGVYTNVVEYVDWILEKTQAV
Sequence (P03951 19-387 partner limits assumed): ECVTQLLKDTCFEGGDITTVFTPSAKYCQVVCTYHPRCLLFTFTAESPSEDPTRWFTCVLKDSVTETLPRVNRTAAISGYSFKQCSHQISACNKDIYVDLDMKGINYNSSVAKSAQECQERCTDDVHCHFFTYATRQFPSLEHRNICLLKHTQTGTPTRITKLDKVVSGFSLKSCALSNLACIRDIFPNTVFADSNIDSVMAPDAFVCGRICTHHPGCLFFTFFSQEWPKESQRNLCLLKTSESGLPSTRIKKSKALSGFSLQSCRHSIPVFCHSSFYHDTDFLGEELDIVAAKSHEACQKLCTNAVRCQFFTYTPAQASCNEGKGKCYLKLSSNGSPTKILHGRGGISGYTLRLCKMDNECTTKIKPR
Test: Factor XIa assay (S-2366 substrate)
Assay type: biochemical
Conditions: [IC50 for Trypsin/IC50 for other enzyme]×100; lower = more trypsin selective
Non-standard residues stand in square brackets, D forms with d. Residues, ends and D or L forms follow the SMILES beside them. *: point of attachment. Boc = CC(C)(C)OC(=O)*
Give Calculated % Selectivity XIa for every item shown.

{"compound": "CC(C)(C)OC(=O)N[C@H](CC(=O)O)C(=O)N1CCC[C@H]1C(=O)N[C@H](C=O)CCCNC(=N)N [Compound 12] (Boc-[dD]-Pro-Arg-aldehyde)", "value_measured": "< 0.34%"}
{"compound": "CC(C)(C)OC(=O)N[C@@H](CCC(=O)O)C(=O)N1CCC[C@H]1C(=O)N[C@H](C=O)CCCNC(=N)N [Compound 8] (Boc-Glu-Pro-Arg-aldehyde)", "value_measured": "0.15%"}
{"compound": "CC(C)(C)OC(=O)N[C@@H](CC(=O)O)C(=O)N1CCC[C@H]1C(=O)N[C@H](C=O)CCCNC(=N)N [Compound 9] (Boc-Asp-Pro-Arg-aldehyde)", "value_measured": "0.12%"}
{"compound": "N=C(N)NCCC[C@@H](C=O)NC(=O)[C@@H]1CCCN1C(=O)[C@H](CC(=O)O)NC(=O)OC12CC3CC(CC(C3)C1)C2 [Compound 11]", "value_measured": "< 0.42%"}

Turning now to a further compound:
Given the compound CC(C)COC(=O)NC(CC(=O)O)C(=O)N1CCCC1C(=O)NC(C=O)CCCN=C(N)N (centres unmarked) [Compound 10] , what is its reported Calculated % Selectivity XIa?
< 0.19%
